Taken from paper PMC10726135.

Biological target: HNF4alpha8 (COS-7 nuclear extract) (Homo sapiens, UniProt P41235-5 1-452)
Sequence: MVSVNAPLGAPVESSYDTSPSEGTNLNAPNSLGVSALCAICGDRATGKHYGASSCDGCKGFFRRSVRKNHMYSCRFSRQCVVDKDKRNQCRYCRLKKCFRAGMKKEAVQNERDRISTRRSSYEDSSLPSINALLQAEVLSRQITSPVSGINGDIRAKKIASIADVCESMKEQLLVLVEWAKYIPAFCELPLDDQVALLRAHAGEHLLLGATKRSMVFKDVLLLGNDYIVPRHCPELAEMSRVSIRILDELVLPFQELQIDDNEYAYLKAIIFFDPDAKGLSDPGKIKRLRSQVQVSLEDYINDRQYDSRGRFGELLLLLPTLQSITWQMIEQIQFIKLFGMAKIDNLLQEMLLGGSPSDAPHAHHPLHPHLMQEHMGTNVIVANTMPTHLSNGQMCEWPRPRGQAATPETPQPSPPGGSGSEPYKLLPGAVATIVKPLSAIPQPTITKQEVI
Assay: protein-binding microarray; COS-7 nuclear extract on double-stranded Agilent 4x180k PBM; binding buffer, salt, pH and temperature not given in the material; high values mean tight binding
Settings: chain copies: 2; label: 3' end of strand 1 on the slide; dsDNA, one strand shown
In all, about 18,000 sequences were measured (“log2 normalized intensity”: median about 0.36, highest 2% from about 7.3 on). What follows is part of a selection rich in the highest values, with near analogues and random picks from the rest.
The following ranges of binding signal define the classes used here: class 1 = under 0.09 log2 normalized intensity, class 2 = from 0.09 log2 normalized intensity up to 7 log2 normalized intensity, class 3 = 7 log2 normalized intensity and over

Ask | In plain terms, what class is GGACTTGATCCAGGGCAAAGGTCATAATTTGCCTAGGGAGATTAGAGTATCGGTCGA ?
Reply | class 3

Ask | Record: AAGGGTCAAGGGTCATTTGTTTTTACAGACGCCTAGGGAGATTAGAGTATCGGTCGA
Reply | class 2

Ask | Same thing, different sequence: TCCTCTCTCCCACAAGGGCAGCCCTGTTTAGCCTAGGGAGATTAGAGTATCGGTCGA
Reply | class 1

Ask | Let us now turn to CAAAGGTCATAATTTGATCCAGTGTGCAAAGCCTAGGGAGATTAGAGTATCGGTCGA
Reply | class 2

Ask | Query GGACTTTGGCCCTCAGCCCAATGTGGTAGGGCCTAGGGAGATTAGAGTATCGGTCGA next
Reply | class 2

Ask | Could you do the same for GATTGGACTTTGGCCTGTGAATCCACATTCGCCTAGGGAGATTAGAGTATCGGTCGA , please?
Reply | class 2

Ask | Request: TGGGTGGGGGAAGTGTGGTCAAGGGTCAGTGCCTAGGGAGATTAGAGTATCGGTCGA
Reply | class 2

Ask | Would you kindly repeat that for TGAATTCTGCAGCAGATGGCCAGCCTTTGGGCCTAGGGAGATTAGAGTATCGGTCGA ?
Reply | class 1

Ask | // same read-out, input: CAGAGGACAGGTTTCCTGAGTTACAGATAAGCCTAGGGAGATTAGAGTATCGGTCGA
Reply | class 1

Ask | Okay, and CATATCTGGAATTTCAAAGGGAGCATATGTGCCTAGGGAGATTAGAGTATCGGTCGA ?
Reply | class 2

Ask | # iterate: AAAGAGATTGGACTTTGGCCTGTGAATCCAGCCTAGGGAGATTAGAGTATCGGTCGA
Reply | class 3

Ask | Would you kindly repeat that for GAGGCTTTGAGTCATTGAGGCTTTGCCTTAGCCTAGGGAGATTAGAGTATCGGTCGA ?
Reply | class 1

Ask | Same again, this time with AGAAAACACAGAGATCTGATCAAAGGTCATGCCTAGGGAGATTAGAGTATCGGTCGA
Reply | class 2

Ask | Would you kindly repeat that for GTGGGAGAGCAAGGGTCAAGGGTCATTTGTGCCTAGGGAGATTAGAGTATCGGTCGA ?
Reply | class 3
